Target: Gal(b1-3)[Neu5Ac(a2-6)]GalNAc
Assay: glycan array binding signal (z-score within array); higher = stronger binding
Conditions: glycan notation: IUPAC condensed, linker removed
This is one part of a sample in which the strongest signals are shown more often than they occur.
readout-type: glycan array binding signal (z-score)
Lab note: record just the number, no unit beside it.

Known glycan array binding signal (z-score) results, listed for orientation:
>>> readout_number("DC-SIGN (Canis lupus), XP_853402 (protein) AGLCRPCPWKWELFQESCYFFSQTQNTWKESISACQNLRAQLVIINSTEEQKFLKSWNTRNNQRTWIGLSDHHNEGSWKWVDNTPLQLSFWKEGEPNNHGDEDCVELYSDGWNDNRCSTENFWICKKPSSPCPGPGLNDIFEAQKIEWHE")
-0.216
>>> readout_number("HPAIIITrx (Helix pomatia), Q1KM18 (protein) MLFVTIISLGLLAIVHGQCALKTIAFSAAIDREQTFDANQVVIYDIVITNHGNAYDNSTGLFTAPVDGMYSFQLNLLTIKEKEGWLELVHNGQLKVSVYAKQDSTYDSSSNSVIIKMKEGDRVNVRAHKKSGLFGRDDELYNTFSGHFLSGL")
-0.314
>>> readout_number("Annexin-A1 (Mus musculus), P10107 (protein) MAMVSEFLKQARFLENQEQEYVQAVKSYKGGPGSAVSPYPSFNVSSDVAALHKAIMVKGVDEATIIDILTKRTNAQRQQIKAAYLQENGKPLDEVLRKALTGHLEEVVLAMLKTPAQFDADELRGAMKGLGTDEDTLIEILTTRSNEQIREINRVYREELKRDLAKDITSDTSGDFRKALLALAKGDRCQDLSVNQDLADTDARALYEAGERRKGTDVNVFTTILTSRSFPHLRRVFQNYGKYSQHDMNKALDLELKGDIEKCLTTIVKCATSTPAFFAEKLYEAMKGAGTRHKALIRIMVSRSEIDMNEIKVFYQKKYGISLCQAILDETKGDYEKILVALCGGN")
-0.343

q: Please report the recorded glycan array binding signal (z-score) for Actd5 (Actinidia), P84527 (protein) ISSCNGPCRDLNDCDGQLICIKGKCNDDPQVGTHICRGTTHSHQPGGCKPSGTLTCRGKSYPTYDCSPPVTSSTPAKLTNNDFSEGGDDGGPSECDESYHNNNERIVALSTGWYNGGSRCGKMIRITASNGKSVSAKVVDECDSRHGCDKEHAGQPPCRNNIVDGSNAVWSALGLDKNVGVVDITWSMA .
a: -1.12

q: Which value of glycan array binding signal (z-score) has been reported for IRP60A (Homo sapiens), Q9UGN4 (protein) MWLPWALLLLWVPGCFALSKCRTVAGPVGGSLSVQCPYEKEHRTLNKYWCRPPQIFLCDKIVETKGSAGKRNGRVSIRDSPANLSFTVTLENLTEEDAGTYWCGVDTPWLRDFHDPVVEVEVSVFPASTSMTPASITAAKTSTITTAFPPVSSTTLFAVGATHSASIQEETEEVVNSQLPLLLSLLALLLLLLVGASLLAWRMFQKWIKAGDHSELSQNPKQAATQSELHYANLELLMWPLQEKPAPPREVEVEYSTVASPREELHYASVVFDSNTNRIAAQRPREEEPDSDYSVIRKT in the records?
a: -0.296

q: For CALR truncated at D342 (Homo sapiens) (protein) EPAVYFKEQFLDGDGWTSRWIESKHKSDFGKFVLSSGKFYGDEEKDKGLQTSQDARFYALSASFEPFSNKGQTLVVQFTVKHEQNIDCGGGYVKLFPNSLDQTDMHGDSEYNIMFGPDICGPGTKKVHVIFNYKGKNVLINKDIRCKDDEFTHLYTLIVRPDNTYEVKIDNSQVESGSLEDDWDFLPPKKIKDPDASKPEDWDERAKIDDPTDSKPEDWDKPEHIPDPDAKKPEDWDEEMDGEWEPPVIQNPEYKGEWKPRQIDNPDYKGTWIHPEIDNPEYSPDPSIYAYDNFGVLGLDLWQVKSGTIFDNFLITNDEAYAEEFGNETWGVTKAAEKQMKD , what is its reported glycan array binding signal (z-score)?
a: -0.241

q: For the binder CFEM-SCL (Saccharomyces cerevisiae), O13547 (protein) MRATTLLSSVVSLALLSKEVLATPPACLLACVAQVGKSSSTCDSLNQVTCYCEHENSAVKKCLDSICPNNDADAAYSAFKSSCSEQNASLGD , what glycan array binding signal (z-score) is on record?
a: 3.63

q: Quick check: glycan array binding signal (z-score) of Gal-9-hFc (Mus musculus), O08573-2 (protein) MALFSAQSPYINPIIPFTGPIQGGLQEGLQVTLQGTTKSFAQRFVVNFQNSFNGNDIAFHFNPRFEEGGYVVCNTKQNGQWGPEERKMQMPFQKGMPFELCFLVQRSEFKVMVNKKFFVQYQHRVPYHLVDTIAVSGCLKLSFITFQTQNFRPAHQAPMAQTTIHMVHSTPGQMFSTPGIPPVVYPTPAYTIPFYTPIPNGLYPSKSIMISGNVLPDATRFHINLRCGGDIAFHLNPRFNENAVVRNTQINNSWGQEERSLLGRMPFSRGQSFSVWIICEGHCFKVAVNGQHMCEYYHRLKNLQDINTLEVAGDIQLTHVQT ?
a: 0.317

q: Fill blank: measured glycan array binding signal (z-score) of the binder Gal 9 (Homo sapiens), O00182 (protein) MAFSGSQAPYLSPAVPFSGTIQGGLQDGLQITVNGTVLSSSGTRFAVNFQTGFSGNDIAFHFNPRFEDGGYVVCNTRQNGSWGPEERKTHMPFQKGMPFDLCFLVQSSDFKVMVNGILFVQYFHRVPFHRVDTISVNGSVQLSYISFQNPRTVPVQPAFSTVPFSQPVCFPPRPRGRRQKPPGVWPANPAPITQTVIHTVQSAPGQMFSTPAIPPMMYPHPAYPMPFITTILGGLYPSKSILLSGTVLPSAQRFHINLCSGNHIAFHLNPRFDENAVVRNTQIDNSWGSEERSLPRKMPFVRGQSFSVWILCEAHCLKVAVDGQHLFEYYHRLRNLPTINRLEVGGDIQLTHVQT is ____.
a: -0.315

q: Which glycan array binding signal (z-score) value belongs to CFEM-PPl (Pichia pastoris), F2QPV1 (protein) AVATPPACLLACAAEVVKESSDCDALNNIQCICENEGSAIHACLESTCPDGLSSTALQSFEDVCESVGTEANLDE ?
a: 8.06
